// provenance: patent US20230099567A1

assay.notes: Pharmacokinetic analysis in mice after I.V. and oral administration
Assay type: in vivo, mouse
test.parameters: mouse, plasma, iv; I.V, 1 mg/Kg, male CD-1 mice
measure: AUC(0-inf)
Phrase the answer as number then unit, nothing more needed.

| compound | measure | value.reported |
| --- | --- | --- |
| O=C(/C=C/c1ccc(O)c(O)c1)c1ccc(O)cc1O [compound 1, reference compound] | AUC(0-inf) | 6.7 ng·h/mL |

Could you share which AUC(0-inf) value was measured for O=C(Oc1cc(O)ccc1C(=O)/C=C/c1ccc(O)c(O)c1)c1ccccc1 [compound 14a] ?
163 ng·h/mL
